PROPERTY_LABEL: melting point

Lab note: measured melting point of O=C1CN=C(c2ccccc2Cl)c2cc(I)sc2N1 was 229 to 231 °C

Lab note: measured melting point of COCCOc1cc2nccc(Oc3cccc(O)c3)c2cc1C#N was 159 to 163 °C

Lab note: measured melting point of Cc1cccc(C)c1C=Nc1cc(Cl)c(N=CN(C)C)c(Cl)c1 was 123 to 124 °C

Lab note: measured melting point of O=C(NCc1ccc(C(F)(F)F)cc1)c1ccnc(NC(=O)c2ccccc2)c1 was 165 to 168 °C

---

PROPERTY_LABEL: melting point

Observe how each entry below is paired with its result.
In [3]: df
Out[3]:
                                   molecule  property_label  value_reported
0  CN1CCN(C2c3ccccc3C=Cc3ccc(Br)cc32)CC1 (configuration not stated)   melting point   128 to 130 °C
1  Cc1cc2c(-c3ccccc3)c3n(c(=O)c2cc1C)CCCC3O (configuration not stated)   melting point   210 to 212 °C
2  O=C(COc1ccc(C2=NNC(=O)NC2)cc1)NCCN1CCOCC1   melting point   216 to 217 °C
3  CCN1CCCC1CNc1ccc(-c2ccnc(Nc3cc(OC)c(OC)c(OC)c3)n2)cn1 (configuration not stated)   melting point     81 to 82 °C
4                     Clc1ccc(NC2CCCCC2)nn1   melting point   161 to 163 °C
5  CCn1c(=O)c2[nH]c(C(C)C)nc2n(Cc2ccc(OC)c(OC)c2)c1=O   melting point   198 to 201 °C
6  COc1ccc(CNC(=O)c2cc([N+](=O)[O-])ccc2N[C@H]2CC[C@@H](OC(C)=O)CC2)cc1OC   melting point   147 to 148 °C
7  C[C@@H]1CO[C@]2(CC[C@@H](OCc3ccccc3)C2)N1C(=O)c1ccccc1   melting point     85 to 86 °C

Lab note: measured melting point of CC(C(=O)O)c1ccc2c(c1)C(=O)Cc1cc(F)ccc1S2 (configuration not stated) was 213 to 214 °C

Lab note: measured melting point of O=[N+]([O-])c1ccc(Cl)cc1NCC1CCCCC1 was 73 °C

Lab note: measured melting point of CCOC(=O)c1[nH]c(CC)nc1C(C)C was 177 to 178 °C

Lab note: measured melting point of Clc1ccc2c(c1)CCC(c1cccnc1)O2 (configuration not stated) was 60 to 63 °C

Lab note: measured melting point of CCOC(=O)c1[nH]c2cc(Cl)cc(Cl)c2c1NCS(=O)(=O)c1ccccc1 was 244 to 245 °C

---

Overview of reported melting point across a group of compounds:

Observe how each entry below is paired with its result.
                            chemical_string  value_reported
0  C/C(Br)=C(\Br)c1cn(-c2c(Cl)cc(C(F)(F)F)cc2Cl)nc1C#N   134 to 135 °C
1      N#Cc1ccccc1N1CCN(CNC(=O)c2ccccc2)CC1   148 to 150 °C

Lab note: measured melting point of CCCCCNC(=O)[C@H](Cc1ccc(N(CC(=O)O)CC(=O)O)cc1)NC(=O)[C@H](Cc1ccccc1)NC(=O)OC(C)(C)C was 151 to 152 °C
